Provenance of the data: PubChem BioAssay

Target: Follistatin-related protein 3 (Homo sapiens)
Assay: FSTL3 binders on small-molecule microarrays, primary screen, biochemical, small-molecule microarray, 635 nm fluorescence (AID 1105);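 also: score merges emission near 667 nm and signal to noise per printed spot across three slides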
Conditions: FSTL3 binding, higher = more signal
property: composite z-score
Answer as a number with no unit attached.

Cc1ccc(S[C@]2(C(=O)NCCN3CCOCC3)CC(=O)N(Cc3cc(C(F)(F)F)cc(C(F)(F)F)c3)[C@@H]2c2ccc(CO)cc2)cc1    -1.15
O=C1O[C@H](c2ccccc2)[C@H](c2ccccc2)N2[C@H]1[C@@H](C(=O)Nc1nc3ccccc3s1)[C@]1(C(=O)Nc3ccc(C#CCCO)cc31)[C@H]2c1ccccc1OCCO    0.892
C=C(C1=CCN(S(=O)(=O)c2ccc(C)cc2)C1)[C@@H](OC(C)=O)[C@@H]1CCCN1S(=O)(=O)c1ccccc1[N+](=O)[O-]    -0.114
Cc1ccc(S[C@]2(C(=O)NCC(C)C)CC(=O)N(C(C)C)[C@@H]2c2ccc(CO)cc2)cc1    -0.196
COCCOC(=O)N1C(=O)[C@@]2(c3cc(C#CCNC(N)=O)ccc31)[C@H](c1ccccc1OCCO)N1[C@H](c3ccccc3)[C@H](c3ccccc3)OC(=O)[C@H]1[C@@H]2C(=O)Nc1nc2ccccc2s1    0.572

Look up and report measured composite z-score for this entry: COC(=O)c1c2oc(c1C(=O)OC)C(=O)N[C@@H](C(C)C)Cn1nncc1C1(CCCCC1)NC(=O)N[C@H](CO)CC2
-0.232

Look up and report measured composite z-score for this entry: C=CCC(OC(C)=O)[C@@H]1[C@@H](N(Cc2ccc(-c3cccc(C(F)(F)F)c3)o2)C(=O)c2ccc(-c3ccccc3)cc2)c2cc(OCCCO)ccc2N1C(=O)Cc1ccc(OC)cc1 (some centres undefined)
-0.201

----------
System: XIP peptide (Xip251-270)
Experiment: small-molecule binders of XIP peptide, primary screen, biochemical, small-molecule microarray, fluorescence 635/667 nm, 0.5 µg/mL protein (AID 1183)
Conditions: small-molecule microarray binding, fluorescence 635 nm; higher = more signal
If the reported composite z-score equals or exceeds 0.7, assign T. If not, assign F.

Check the entry CCCC[C@@H](O)C1=C(C)C[C@H]2C(=O)N(C)C(=O)[C@H]2[C@H]1CO : does composite z-score equal or exceed 0.7?
F

Check the entry CCCCCN1CC=CC23O[C@@H]4/C=C\CCC(C)OC(=O)C4[C@H]2C(=O)N(CCO)[C@@H]3C1=O (some centres undefined) : does composite z-score equal or exceed 0.7?
F

Check the entry C=CC[C@]1(C(=O)N2CCCCC2)COC(c2ccc(OCCCO)cc2)=N1 : does composite z-score equal or exceed 0.7?
F

Check the entry CC(C)(C)OC(=O)CC[C@@]1(C(=O)NCc2ccccc2)N=C(c2ccc(OCCCO)cc2)O[C@@H]1c1ccccc1CN=[N+]=[N-] : does composite z-score equal or exceed 0.7?
T

Check the entry C=CCC(OC(C)=O)[C@@H]1[C@@H](N(Cc2ccc(-c3ccccc3)cc2)C(=O)c2ccc(-c3ccccc3)cc2)c2cc(OCCCO)ccc2N1C(=O)c1ccc(-c2ccccc2)cc1 (some centres undefined) : does composite z-score equal or exceed 0.7?
F

----------
Assay: E. coli growth modulation, two-sided OD650, primary screen, E. coli filamentation project, strain DRC41, 24 h (AID 1093);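 also: MC1000 strain lacking acrAB efflux and sulA so SOS filamentation is blocked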
Conditions: OD650, 24 h, higher = more signal, called active from +8 up or from −8 down
property: z-score
Answer as a number with no unit attached.

Some solved cases for reference:
O=C(O)[C@H]1C[C@H]2C(=O)N[C@@H](Cc3ccccc3)C(=O)N2[C@H]1c1ccc(O)cc1    0.906
CCCCCCC#C[Si](O[C@H](c1ccccc1)c1cn(Cc2ccccc2)nn1)(C(C)C)C(C)C    2.25
CCCNC(=O)[C@@H]1c2ccccc2C(=O)N(Cc2cc(C(F)(F)F)cc(C(F)(F)F)c2)[C@H]1c1ccc(CO)cc1    0.315

Please find the next molecule below.
Look up and report measured z-score for this entry: O=C(NO)[C@]1(Cc2ccccc2)N=C(c2ccc(OCCCO)cc2)O[C@@H]1c1ccccc1
3.42
